FYI, the data here is from PubChem BioAssay (Tox21).

- measurement target: Aryl hydrocarbon receptor (Homo sapiens)
- assay details: qHTS assay to identify small molecule that activate the aryl hydrocarbon receptor (AhR) signaling pathway (AID 743085); further: nearly all actives have a fitted effect of over 15% in size;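 on activation: HG2L7.5c1 human HepG2 liver cells with stably integrated DRE-driven firefly reporter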
- condition label: HepG2 AhR-luc (HG2L7.5c1), luciferase, 24 h; series mostly up to 70.3 µM
Records with an inconclusive call do not appear. Activity calls are given as the source filed them. The call rests on the fitted dose curve; in most records, active means well fitted activation curve with a large enough effect in the repeat runs; inconclusive means weak or mixed curves; inactive means no such curve, though single readings can be large or run the other way.
Entry note: the call must match one of t = active, f = inactive

Exercise: Look up the recorded call for CC(C)C[C@H](NC(=O)[C@H](Cc1ccccc1)NC(=O)c1cnccn1)B(O)O in this test.
Solution: f

Exercise: Outcome? Cc1nc2sccn2c(=O)c1CCN1CCC(=C(c2ccc(F)cc2)c2ccc(F)cc2)CC1
Solution: f

Exercise: # fetch the recorded call for CCCC(=O)OCCC(C)C here
Solution: f

Exercise: Query: recorded result category for CCCCCCCCCCCCSC#N in this test
Solution: f

Exercise: I would be grateful if you could indicate the recorded call for CCCOC(C)=O .
Solution: f

Exercise: What is the recorded call for this compound in the test? CCCCCCCCCCCCSCCOCCO
Solution: f

Exercise: Kindly provide the recorded test outcome for the following compound: COc1ccc(C(=O)Nc2ccccc2)cc1[N+](=O)[O-]
Solution: t

Exercise: GET /call?item= Oc1ccc(CCNCCCCCCNCCc2ccccc2)cc1O returns the recorded outcome of this test.
Solution: f

Exercise: Dear colleague, could you share the recorded outcome for O=C(O)c1cc(C(=O)O)cc([N+](=O)[O-])c1 when you have a moment?
Solution: f

Exercise: Could you please tell me the result logged for OCC(O)c1ccccc1 (stereo not given) in this assay?
Solution: f

Exercise: Field: outcome | Entry: Nc1ccccc1Nc1ccccc1
Solution: t

Exercise: Recorded call for Cc1ccc2ccccc2c1[N+](=O)[O-] ?
Solution: f

Exercise: Hello, I am checking results. What call was entered for C=CC(C)(O)CC/C=C(/C)CCC=C(C)C (stereo not given) ?
Solution: f

Exercise: What did the test return for COc1ccc(CN(CCN(C)C)c2ncccn2)cc1 ?
Solution: f

Exercise: Outcome logged for CCCCCCC/C=C/C=O in this assay:
Solution: f

Exercise: Just curious, what result did CC(=O)c1ccc(Cl)c(Cl)c1Cl get here?
Solution: f

Exercise: Would you mind telling me which call this test gave OCCCO ?
Solution: f

Exercise: For COC(=O)/C=C/C(C)=C\C=C\C(C)=C\C=C\C=C(C)\C=C\C=C(C)\C=C\C(=O)O , what call appears in the results of this test?
Solution: f

Exercise: Call for entry O=C1c2ccccc2C(=O)c2c1ccc(O)c2O :
Solution: t

Exercise: Hi team, can someone confirm the assay call for COC(=O)c1cc(Cl)ccc1[N+](=O)[O-] ?
Solution: f

Exercise: Outcome logged for C[C@H]1C[C@H]2[C@@H]3CCC4=CC(=O)C=C[C@]4(C)[C@@]3(F)[C@@H](O)C[C@]2(C)[C@@]1(O)C(=O)COP(=O)(O)O in this assay:
Solution: f

Exercise: Recorded call for CO[C@@H]1[C@@H](O[C@@H]2O[C@H](C)[C@@H](O[C@H]3C[C@@](C)(O)[C@@H](O)[C@H](C)O3)[C@H](N(C)C)[C@H]2O)[C@@H](CC=O)C[C@@H](C)[C@@H](O[C@@H]2CC[C@H](N(C)C)[C@@H](C)O2)/C=C/C=C/C[C@@H](C)OC(=O)C[C@H]1OC(C)=O ?
Solution: f

Exercise: Dear colleague, could you share the recorded outcome for N#C[C@@H]1CC(F)(F)CN1C(=O)CNC1CC2CCC(C1)N2c1ncccn1 (stereo not given in full) when you have a moment?
Solution: f

Exercise: Assay result, entry NC(=O)c1ccccc1 — outcome?
Solution: f

Exercise: Could you please tell me the result logged for CCCCC(CC)COCCC#N (stereo not given) in this assay?
Solution: f
